- targetOfAssay: T1, human plasma kallikrein (human, UniProt P03952 20-390; P03952 391-638)
- T1 construct: also called pKal; human pKal
- T1 sequence (P03952 20-390, chain 1 of 2): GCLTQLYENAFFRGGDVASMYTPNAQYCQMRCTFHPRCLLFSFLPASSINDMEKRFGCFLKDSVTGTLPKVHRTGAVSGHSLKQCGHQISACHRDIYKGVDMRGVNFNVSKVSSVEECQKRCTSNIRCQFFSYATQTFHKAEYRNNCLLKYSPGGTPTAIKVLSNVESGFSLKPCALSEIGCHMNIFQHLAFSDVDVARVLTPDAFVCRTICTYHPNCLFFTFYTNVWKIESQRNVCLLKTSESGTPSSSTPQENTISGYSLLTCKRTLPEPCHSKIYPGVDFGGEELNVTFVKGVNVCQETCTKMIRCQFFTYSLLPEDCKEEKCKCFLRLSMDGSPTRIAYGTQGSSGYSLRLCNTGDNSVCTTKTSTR
- T1 sequence (P03952 391-638, chain 2 of 2): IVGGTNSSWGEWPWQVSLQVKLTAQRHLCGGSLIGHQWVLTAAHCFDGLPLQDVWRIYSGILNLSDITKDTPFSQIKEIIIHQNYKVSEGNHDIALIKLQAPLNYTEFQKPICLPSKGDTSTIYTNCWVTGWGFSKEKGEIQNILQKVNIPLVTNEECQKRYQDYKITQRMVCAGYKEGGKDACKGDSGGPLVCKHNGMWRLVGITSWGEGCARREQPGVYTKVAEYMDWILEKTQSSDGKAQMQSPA
- protocolDescription: apparent inhibition constant (Ki,app) against human pKal, enzyme inhibition
readoutLabel: Ki (nM)
Please reply with the bare figure in nM and do not write the unit itself.

According to the records, this binder X67-C03 (antibody, V domains shown, Single point mutant (F to M at P2 of HC CDR3) of M142-H08; the printed HC is used; Only variable domains and the start of CH1 are printed; also called 559A-X67-C03) VH: EVQLLESGGGLVQPGGSLRLSCAASGFTFSAYSMIWVRQAPGKGLEWVSYIRPSGGRTTYADSVKGRFTISRDNSKNTLYLQMNSLRAEDTAVYYCARGGLLLWMRELKSNYFDYWGQGTLVTVSS VL: DIQMTQSPSSLSAFVGDRVTITCRASQPIDNYLNWYHQKPGKAPKLLIYAASRLQSGVPSRLSGSGFGTDFTLTISSLQPEDFGNYYCQQSYTVPYTFGGGTKVEIR displays Ki of 0.7

According to the records, this binder M145-D11 (Fab, V domains shown, Printed HC runs from VH into the start of CH1; also called 559A-M145-D11; 559A-M0145-D11) VH: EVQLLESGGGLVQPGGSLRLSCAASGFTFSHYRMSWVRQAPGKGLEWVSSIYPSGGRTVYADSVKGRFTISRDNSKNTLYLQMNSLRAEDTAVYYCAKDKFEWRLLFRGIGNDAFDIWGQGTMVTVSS VL: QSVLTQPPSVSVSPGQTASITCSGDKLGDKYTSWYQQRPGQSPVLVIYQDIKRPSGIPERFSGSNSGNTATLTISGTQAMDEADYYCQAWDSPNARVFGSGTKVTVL displays Ki of 0.79

According to the records, this binder X67-D03 (antibody, V domains shown, Single point mutant (F to N at P2 of HC CDR3) of M142-H08; Only variable domains and the start of CH1 are printed; also called 559A-X67-D03) VH: EVQLLESGGGLVQPGGSLRLSCAASGFTFSAYSMIWVRQAPGKGLEWVSYIRPSGGRTTYADSVKGRFTISRDNSKNTLYLQMNSLRAEDTAVYYCARGGLLLWNRELKSNYFDYWGQGTLVTVSS VL: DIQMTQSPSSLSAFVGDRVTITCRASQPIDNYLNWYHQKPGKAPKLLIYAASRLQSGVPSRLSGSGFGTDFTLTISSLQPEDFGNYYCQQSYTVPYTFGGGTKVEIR displays Ki of 0.1

According to the records, this binder M29-E09 (Fab, V domains shown, Printed HC runs from VH into the start of CH1) VH: EVQLLESGGGLVQPGGSLRLSCAASGFTFSWYEMGWVRQAPGKGLEWVSSIYSSGGGTMYADSVKGRFTISRDNSKNTLYLQMNSLRAEDTAVYYCARNPQYSGYDRSLSDGAFDIWGQGTMVTVSS VL: QYELTQPPSVSVSPGQTATITCSGDNLGNKYNSWYQQKPGQSPLLVIYQDTKRPSAIPERFSGSNSGNTATLTISGTQAMDEADYYCQAWDGNVVFGGGTKLTVL displays Ki of 11

According to the records, this binder M162-A04 (Fab, V domains shown, Non-germlined Fab discovered using phage display; Printed HC runs from VH into the start of CH1; also called M162-A4; 559A-M162-A4) VH: EVQLLESGGGLVQPGGSLRLSCAASGFTFSHYIMMWVRQAPGKGLEWVSGIYSSGGITVYADSVKGRFTISRDNSKNTLYLQMNSLRAEDTAVYYCAYRRTGIPRRDAFDIWGQGTMVTVSS VL: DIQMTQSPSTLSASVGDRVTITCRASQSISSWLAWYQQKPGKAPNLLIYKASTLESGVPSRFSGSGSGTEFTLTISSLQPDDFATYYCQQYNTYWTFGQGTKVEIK displays Ki of 4.8

According to the records, this binder X67-E04 (antibody, V domains shown, Single point mutant (F to D at P2 of HC CDR3) of M142-H08; Only variable domains and the start of CH1 are printed; also called 559A-X67-E04) VH: EVQLLESGGGLVQPGGSLRLSCAASGFTFSAYSMIWVRQAPGKGLEWVSYIRPSGGRTTYADSVKGRFTISRDNSKNTLYLQMNSLRAEDTAVYYCARGGLLLWDRELKSNYFDYWGQGTLVTVSS VL: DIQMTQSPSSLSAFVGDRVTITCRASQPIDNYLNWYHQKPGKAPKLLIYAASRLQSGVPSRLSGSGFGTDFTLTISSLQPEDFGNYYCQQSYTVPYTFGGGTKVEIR displays Ki of 1.3

According to the records, this binder M35-G04 (Fab, V domains shown, Printed HC runs from VH into the start of CH1; also called 559A-M35-G04; 559A-M0035-G04) VH: EVQLLESGGGLVQPGGSLRLSCAASGFTFSYYHMSWVRQAPGKGLEWVSVISPSGGSTKYADSVKGRFTISRDNSKNTLYLQMNSLRAEDTAVYYCARGGSSDYAWGSYRRPYYFDYWGQGTLVTVSS VL: DIQMTQSPATLSLSPGERATLSCRASQSVSSYLAWYQQKPGQAPRLLIYDASNRATGIPARFSGSGSGTDFTLTISSLEPEDFAVYYCQQRSNWPRGFTFGPGTKVDIK displays Ki of 2.9

According to the records, this binder X67-G04 (antibody, V domains shown, Single point mutant (F to A at P2 of HC CDR3) of M142-H08; Only variable domains and the start of CH1 are printed; also called 559A-X67-G04) VH: EVQLLESGGGLVQPGGSLRLSCAASGFTFSAYSMIWVRQAPGKGLEWVSYIRPSGGRTTYADSVKGRFTISRDNSKNTLYLQMNSLRAEDTAVYYCARGGLLLWARELKSNYFDYWGQGTLVTVSS VL: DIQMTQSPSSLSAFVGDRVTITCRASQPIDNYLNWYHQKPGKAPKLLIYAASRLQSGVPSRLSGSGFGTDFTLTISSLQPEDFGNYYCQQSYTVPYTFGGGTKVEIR displays Ki of 0.35
